Molecular target: UniProt:P42226
Sequence (P42226 whole entry, species assumed): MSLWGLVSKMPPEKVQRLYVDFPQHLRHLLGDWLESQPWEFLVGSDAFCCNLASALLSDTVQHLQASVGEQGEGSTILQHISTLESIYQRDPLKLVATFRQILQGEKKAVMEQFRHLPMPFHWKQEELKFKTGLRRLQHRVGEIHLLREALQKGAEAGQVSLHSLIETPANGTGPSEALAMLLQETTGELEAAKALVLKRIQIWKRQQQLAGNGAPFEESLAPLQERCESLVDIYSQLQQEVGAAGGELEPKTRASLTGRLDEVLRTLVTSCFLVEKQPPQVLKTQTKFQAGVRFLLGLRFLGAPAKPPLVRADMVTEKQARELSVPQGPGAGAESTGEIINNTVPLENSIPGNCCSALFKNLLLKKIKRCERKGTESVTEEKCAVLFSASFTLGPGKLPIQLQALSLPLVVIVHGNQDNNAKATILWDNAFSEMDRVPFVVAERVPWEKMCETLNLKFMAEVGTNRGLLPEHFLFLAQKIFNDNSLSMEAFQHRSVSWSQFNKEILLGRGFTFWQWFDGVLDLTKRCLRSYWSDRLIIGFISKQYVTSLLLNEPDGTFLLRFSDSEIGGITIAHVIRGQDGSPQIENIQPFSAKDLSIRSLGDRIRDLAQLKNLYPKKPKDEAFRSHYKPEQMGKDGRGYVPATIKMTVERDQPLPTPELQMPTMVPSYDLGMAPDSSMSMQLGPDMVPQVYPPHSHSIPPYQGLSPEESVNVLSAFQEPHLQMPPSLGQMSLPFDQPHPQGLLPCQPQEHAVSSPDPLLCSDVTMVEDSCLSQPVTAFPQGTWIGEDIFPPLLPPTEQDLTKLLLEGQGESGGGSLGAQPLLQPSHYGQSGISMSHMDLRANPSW
Assay: Inhibition of STAT6 binding (duplex formation)
Details: Table 5; STAT6 binding
Measured IC50 values are reported for all entries that follow.
observedProperty: IC50

# molecule, systemName, result
rows = [
    ("CC(=O)NCc1cccc(CN(Cc2ccc(C(N)=O)cc2)C(=O)C2CCCN2C(=O)C(NC(=O)C=Cc2ccc(OP(=O)(O)O)cc2)C(C)(C)C)c1 (centres unmarked) [drawing 71: 4-CONH2,3-CH2NHAc]", "UniProt:P42226", "< 1000 nM"),
    ("CC(=O)NCc1ccc(CN(Cc2ccc(C(N)=O)cc2)C(=O)C2CCCN2C(=O)C(NC(=O)C=Cc2ccc(OP(=O)(O)O)cc2)C(C)(C)C)cc1 (centres unmarked) [drawing 71: 4-CONH2,4-CH2NHAc]", "UniProt:P42226", "< 1000 nM"),
    ("CC(=O)NCc1cccc(CN(Cc2cccc(C(N)=O)c2)C(=O)C2CCCN2C(=O)C(NC(=O)C=Cc2ccc(OP(=O)(O)O)cc2)C(C)(C)C)c1 (centres unmarked) [drawing 71: 3-CONH2,3-CH2NHAc]", "UniProt:P42226", "1000 to 50000 nM"),
    ("CC(C)(C)C(NC(=O)C=Cc1ccc(OP(=O)(O)O)cc1)C(=O)N1CCCC1C(=O)N(Cc1ccc(C#N)cc1)Cc1ccc(C(N)=O)cc1 (centres unmarked) [drawing 71: 4-CONH2,4-CN]", "UniProt:P42226", "< 1000 nM"),
    ("CC(C)(C)C(NC(=O)C=Cc1ccc(OP(=O)(O)O)cc1)C(=O)N1CCCC1C(=O)N(Cc1ccccc1)Cc1ccc(C(N)=O)cc1 (centres unmarked) [drawing 71: 4-CONH2, H]", "UniProt:P42226", "< 1000 nM"),
]
